For each record, write down the corresponding inhibition at 200 µM.
# tested.on: NA (H5N1) (Influenza A virus, UniProt K0C216)
# experimental.protocol: biochemical
# assay.conditions: read-out: Inhibition rate (%) NA (H5N1)
Could you give me the number in %? Just the number is fine.

Query: State the recorded inhibition at 200 µM for this entry: `C/C(C=O)=C\CC[C@@H](C)[C@H]1CC[C@@]2(C)C3=C(CC[C@]12C)[C@@]1(C)CCC(=O)C(C)(C)[C@@H]1CC3=O`
Response: 86.7

Query: State the recorded inhibition at 200 µM for this entry: C/C(=C\C(=O)CC(C)C(=O)O)[C@H]1CC(=O)[C@@]2(C)C3=C(C(=O)C[C@]12C)[C@@]1(C)CC[C@H](O)C(C)(C)[C@@H]1CC3=O (stereo partly shown)
Response: 77.7

Query: State the recorded inhibition at 200 µM for this entry: `C/C(=C\CC[C@@H](C)[C@H]1CC[C@@]2(C)C3=C(CC[C@]12C)[C@@]1(C)CCC(=O)C(C)(C)[C@@H]1CC3=O)C(=O)O`
Response: 55.2

Query: State the recorded inhibition at 200 µM for this entry: `C/C(=C\CC[C@@H](C)[C@H]1C[C@H](O)[C@@]2(C)C3=CC[C@H]4C(C)(C)C(=O)CC[C@]4(C)C3=CC[C@]12C)C(=O)O`
Response: 96.5

Query: State the recorded inhibition at 200 µM for this entry: `C/C(=C\CC[C@@H](C)[C@H]1CC[C@@]2(C)C3=CC[C@H]4C(C)(C)C(=O)CC[C@]4(C)C3=CC[C@]12C)CO`
Response: 77.1

Query: State the recorded inhibition at 200 µM for this entry: `C[C@H](CC(=O)C[C@@H](C)[C@H]1CC(=O)[C@@]2(C)C3=C(C(=O)C[C@]12C)[C@@]1(C)CCC(=O)C(C)(C)[C@@H]1C[C@@H]3O)C(=O)O`
Response: 43.3

Query: State the recorded inhibition at 200 µM for this entry: `C[C@H](CC[C@H](O)C(C)(C)O)[C@H]1CC[C@@]2(C)C3=CC[C@H]4C(C)(C)C(=O)CC[C@]4(C)C3=CC[C@]12C`
Response: 87.9

Query: State the recorded inhibition at 200 µM for this entry: CC(CC(=O)C[C@@H](C)[C@H]1CC(=O)[C@@]2(C)C3=C(C(=O)C[C@]12C)[C@@]1(C)CC[C@H](O)C(C)(C)[C@@H]1CC3=O)C(=O)O (stereo partly shown)
Response: 75.2

Query: State the recorded inhibition at 200 µM for this entry: `C/C(=C\CC[C@@H](C)[C@H]1CC[C@@]2(C)C3=CC[C@H]4C(C)(C)[C@@H](O)CC[C@]4(C)C3=CC[C@]12C)C(=O)O`
Response: 78.2

Query: State the recorded inhibition at 200 µM for this entry: C/C(=C\C(=O)CC(C)C(=O)O)[C@H]1CC(=O)[C@@]2(C)C3=C(C(=O)C[C@]12C)[C@@]1(C)CCC(=O)C(C)(C)[C@@H]1CC3=O (stereo partly shown)
Response: 62.8

====

For each record, write down the corresponding Inhibition rate (%) NA(H7N9).
# Tested on: NA (H7N9)
# Type: biochemical
# assay.conditions: 200 µM
Could you give me the number in %? Just the number is fine.

Query: State the recorded Inhibition rate (%) NA(H7N9) for this entry: `C[C@H](CCC=C(CO)CO)[C@H]1CC[C@@]2(C)C3=CC[C@H]4C(C)(C)C(=O)CC[C@]4(C)C3=CC[C@]12C`
Response: 29.5

Query: State the recorded Inhibition rate (%) NA(H7N9) for this entry: `C[C@H](CC(=O)C[C@@H](C)[C@H]1CC(=O)[C@@]2(C)C3=C(C(=O)C[C@]12C)[C@@]1(C)CCC(=O)C(C)(C)[C@@H]1C[C@@H]3O)C(=O)O`
Response: 26.2

Query: State the recorded Inhibition rate (%) NA(H7N9) for this entry: CC(=O)O[C@@H]1C(=O)C2=C([C@@H](O)C[C@H]3C(C)(C)[C@@H](O)CC[C@]23C)[C@]2(C)C(=O)C[C@H]([C@H](C)CC(=O)CC(C)C(=O)O)[C@@]12C (stereo partly shown)
Response: 28.5

Query: State the recorded Inhibition rate (%) NA(H7N9) for this entry: CC(=O)O[C@@H]1C(=O)C2=C(C(=O)C[C@H]3C(C)(C)[C@@H](O)CC[C@]23C)[C@]2(C)C(=O)C[C@H]([C@H](C)CC(=O)CC(C)C(=O)O)[C@@]12C (stereo partly shown)
Response: 27.2
